System: S. aureus (MSSA)
procedure summary: microbe, parasite or virus in culture
Type: cell-based
attribute measured: MIC S. aureus (MSSA)

Q: Provide one value: measured MIC S. aureus (MSSA) of CC(=O)N(O)CCCP(=O)(OC(C)OC(=O)OC(C)(C)C)OC(C)OC(=O)OC(C)(C)C (stereo not shown) [Compound 25]
Ans: 100 µg/mL

Q: Provide one value: measured MIC S. aureus (MSSA) of CC(=O)N(O)CCCP(=O)(OCOC(=O)c1ccccc1)OCOC(=O)c1ccccc1 [Compound 26]
Ans: >200 µg/mL

Q: Provide one value: measured MIC S. aureus (MSSA) of CC(=O)N(O)CCCP(=O)(OCOC(=O)C(C)(C)C)OCOC(=O)C(C)(C)C [Compound 24]
Ans: 100 µg/mL

Q: Provide one value: measured MIC S. aureus (MSSA) of CC(=O)N(O)CCCP(=O)(OC(C)OC(=O)c1ccccc1)OC(C)OC(=O)c1ccccc1 (stereo not shown) [Compound 27]
Ans: >200 µg/mL

Q: Provide one value: measured MIC S. aureus (MSSA) of CCOC(=O)OC(C)OP(=O)(CCCN(O)C(C)=O)OC(C)OC(=O)OCC (stereo not shown) [Compound 22]
Ans: >200 µg/mL

Q: Provide one value: measured MIC S. aureus (MSSA) of CCOP(=O)(CCCN(O)C=O)OCC [Compound 10, Diethyl fosmidomycin]
Ans: >200 µg/mL

Q: Provide one value: measured MIC S. aureus (MSSA) of CC(=O)N(O)CCCP(=O)(OCC(=O)OC(C)(C)C)OCC(=O)OC(C)(C)C [Compound 23]
Ans: 100 µg/mL

----------
Test system: E. coli k12
procedure summary: microbe, parasite or virus in culture
Assay type: cell-based
protocol conditions: Escherichia coli, K12, read-out: MIC E. coli k12
Assignment: determine reported MIC for the given compounds.

Q: Provide one value: measured MIC of CCOP(=O)(CCCN(O)C(=O)c1ccc(-c2ccccc2)cc1)OCC
Ans: > 200 µg/mL

Q: Provide one value: measured MIC of CC(=O)N(O)CCCP(=O)(O)O [FR900098, reference compound]
Ans: 200 µg/mL

Q: Provide one value: measured MIC of CCOP(=O)(CCCN(O)C(=O)c1ccccc1)OCC
Ans: > 200 µg/mL

Q: Provide one value: measured MIC of O=CN(O)CCCP(=O)(O)O [Fosmidomycin, reference compound]
Ans: 12.5 µg/mL

Q: Provide one value: measured MIC of CCOP(=O)(CCCN(O)C(=O)c1ccc2ccccc2c1)OCC
Ans: > 200 µg/mL

Q: Provide one value: measured MIC of CCOP(=O)(CCCN(O)C(=O)c1cccc2ccccc12)OCC
Ans: > 200 µg/mL

Q: Provide one value: measured MIC of CCOP(=O)(CCCN(OCCCc1ccc(OC)cc1)C(C)=O)OCC
Ans: > 200 µg/mL

Q: Provide one value: measured MIC of CCOP(=O)(CCCN(OCCCCc1ccccc1)C(C)=O)OCC
Ans: > 200 µg/mL

Q: Provide one value: measured MIC of CCOP(=O)(CCCN(OCCc1ccccc1)C(C)=O)OCC
Ans: > 200 µg/mL

Q: Provide one value: measured MIC of CCOP(=O)(CCCN(OCCCc1ccccc1)C(C)=O)OCC
Ans: > 200 µg/mL

Q: Provide one value: measured MIC of CCOP(=O)(CCCN(O)C(=O)Cc1ccccc1)OCC
Ans: > 200 µg/mL

----------
study system: M. tuberculosis Dxr (Mycobacterium tuberculosis, UniProt P9WNS1)
Sequence (P9WNS1 whole entry, looked up): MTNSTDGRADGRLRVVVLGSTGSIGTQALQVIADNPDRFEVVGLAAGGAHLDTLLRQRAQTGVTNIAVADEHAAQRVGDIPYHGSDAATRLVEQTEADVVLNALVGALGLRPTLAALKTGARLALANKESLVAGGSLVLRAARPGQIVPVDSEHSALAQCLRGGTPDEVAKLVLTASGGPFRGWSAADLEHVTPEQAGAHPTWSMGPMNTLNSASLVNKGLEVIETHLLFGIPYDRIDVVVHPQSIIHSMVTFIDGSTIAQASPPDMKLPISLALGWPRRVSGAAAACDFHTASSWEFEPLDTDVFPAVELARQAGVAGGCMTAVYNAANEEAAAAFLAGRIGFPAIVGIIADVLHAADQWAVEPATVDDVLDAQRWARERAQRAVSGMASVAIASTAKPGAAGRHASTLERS
procedure summary: biochemical
protocol conditions: IC50 (μM)
Flag rule - IC50 less than 8 µM flags rule met; the remaining entries get rule not met.

Q: Quick check: does O=C(CCCc1ccccc1)N(O)CCCP(=O)(O)O [Compound 8] have IC50 under 8 µM?
Ans: rule met

Q: Quick check: does CC(=O)N(CCCP(=O)(O)O)OCC1CCCCC1 [Compound 6] have IC50 under 8 µM?
Ans: rule not met

Q: Quick check: does CC(=O)N(CCCP(=O)(O)O)OCCc1ccccc1 [Compound 3] have IC50 under 8 µM?
Ans: rule not met

Q: Quick check: does CC(=O)N(CCCP(=O)(O)O)OCc1ccc(C(C)C)cc1 [Compound 5] have IC50 under 8 µM?
Ans: rule not met

Q: Quick check: does O=C(Cc1ccccc1)N(O)CCCP(=O)(O)O [Compound 7] have IC50 under 8 µM?
Ans: rule met

Q: Quick check: does O=C(C1CCCCC1)N(O)CCCP(=O)(O)O [Compound 9] have IC50 under 8 µM?
Ans: rule not met

Q: Quick check: does CC(=O)N(O)CCCP(=O)(O)O [FR900098, reference compound] have IC50 under 8 µM?
Ans: rule met

----------
Assignment: determine reported MIC for the given compounds.
Tested on: Mtb H37Rv (ATCC 27294)
procedure summary: microbe, parasite or virus in culture
Type: cell-based, Mycobacterium tuberculosis
protocol conditions: Mycobacterium tuberculosis, read-out: Mtb MIC (ug/mL) (GAST)
Write the number in µg/mL without appending the unit.

Q: Provide one value: measured MIC of CC(=O)N(CCCP(=O)(O)O)OCc1ccc(C(C)C)cc1 [GSJ76]
Ans: 25

Q: Provide one value: measured MIC of CCOP(=O)(CCCN(OCc1ccc(C(C)C)cc1)C(C)=O)OCC [GSJ70]
Ans: 200

Q: Provide one value: measured MIC of CCOP(=O)(CCCN(O)C(=O)c1ccccc1)OCC [ERJ 58]
Ans: 31.2

Q: Provide one value: measured MIC of CCOP(=O)(CCCN(OCc1ccc(-c2ccccc2)cc1)C(C)=O)OCC [GSJ72]
Ans: 100

Q: Provide one value: measured MIC of CCOP(=O)(CCCN(OCc1ccc2ccccc2c1)C(C)=O)OCC [GSJ73]
Ans: 100

Q: Provide one value: measured MIC of CCOP(=O)(CCCN(O)C(=O)C1CCCCC1)OCC [ERJ 112]
Ans: 100

----------
Assignment: determine reported MIC for the given compounds.
Test system: Mtb H37Rv (ATCC 27294)
procedure summary: microbe, parasite or virus in culture
Format: cell-based, Mycobacterium tuberculosis
protocol conditions: Mycobacterium tuberculosis, read-out: Mtb MIC (ug/mL) (7H9)
Write the number in µg/mL without appending the unit.

Q: Provide one value: measured MIC of CC(=O)N(CCCP(=O)(O)O)OCc1ccc(C(C)C)cc1 [GSJ76]
Ans: 200

Q: Provide one value: measured MIC of CCOP(=O)(CCCN(OCc1ccc2ccccc2c1)C(C)=O)OCC [GSJ73]
Ans: 200

Q: Provide one value: measured MIC of CC(=O)N(CCCP(=O)(OCOC(=O)c1ccccc1)OCOC(=O)c1ccccc1)OCCCCc1ccccc1 [GSJ92]
Ans: 25

Q: Provide one value: measured MIC of CCOP(=O)(CCCN(O)C(=O)CCCc1ccccc1)OCC [ERJ 79]
Ans: 3.12

----------
Test system: Mtb H37Rv (ATCC 27294)
procedure summary: microbe, parasite or virus in culture
Format: cell-based, Mycobacterium tuberculosis
attribute measured: MIC M. tuberculosis (H37Rv)

Q: Provide one value: measured MIC M. tuberculosis (H37Rv) of CC(=O)N(O)CCCP(=O)(OCOC(=O)C(C)(C)C)OCOC(=O)C(C)(C)C
Ans: 50 to 100 µg/mL

Q: Provide one value: measured MIC M. tuberculosis (H37Rv) of CC(=O)N(O)CCCP(=O)(OC(C)OC(=O)c1ccccc1)OC(C)OC(=O)c1ccccc1 (stereo not drawn)
Ans: 100 to 200 µg/mL

Q: Provide one value: measured MIC M. tuberculosis (H37Rv) of CC(=O)N(O)CCCP(=O)(OCOC(=O)c1ccccc1)OCOC(=O)c1ccccc1
Ans: 25 to 100 µg/mL

----------
Tested on: E. coli tolc
procedure summary: microbe, parasite or virus in culture
Assay type: cell-based
protocol conditions: Escherichia coli, read-out: MIC E. coli tolc
Assignment: determine reported MIC for the given molecules.

Q: Provide one value: measured MIC of CCOP(=O)(CCCN(OCCCc1ccc(OC)cc1)C(C)=O)OCC
Ans: > 200 µg/mL

Q: Provide one value: measured MIC of CCOP(=O)(CCCN(OCCc1ccccc1)C(C)=O)OCC
Ans: > 200 µg/mL

Q: Provide one value: measured MIC of CCOP(=O)(CCCN(O)C(=O)CCCc1ccccc1)OCC
Ans: > 200 µg/mL

----------
Assignment: determine reported IC50 for the given compounds.
study system: UniProt P9WNS1
procedure summary: biochemical
protocol conditions: Mtb Dxr IC50 (ug/mL)
Write the number in µM without appending the unit.

Q: Provide one value: measured IC50 of CC(=O)N(O)CCCCP(=O)(O)O
Ans: 13.2

Q: Provide one value: measured IC50 of CC(=O)N(CCCP(=O)(O)O)OCCc1ccccc1
Ans: 103

Q: Provide one value: measured IC50 of O=C(Cc1ccccc1)N(O)CCCP(=O)(O)O
Ans: 8.09
